Measured pIC50 by item
- Tested on: SK-N-FI;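 note: cell viability assay measuring growth inhibition of human SK-N-FI cells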
- Measurement description: cells
- Format: functional, cell-based, Homo sapiens
- Assay conditions: Homo sapiens, SK-N-FI
- Description: SANGER: Inhibition of human SK-N-FI cell growth in a cell viability assay.
pIC50: −log10 of the molar value.
Readout: pIC50

1. O=C(NOCC1CC1)c1ccc(F)c(F)c1Nc1ccc(I)cc1Cl [CI-1040]: 5.05
2. COc1cc(F)c(F)c(Nc2ccc(I)cc2F)c1NS(=O)(=O)C1(CC(O)CO)CC1 (stereo not given): 5.72

###

- Test system: SW780;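 note: growth inhibition of the cells, read out with a cell viability assay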
- Measurement description: cells
- Format: functional, cell-based, Homo sapiens
- Assay conditions: Homo sapiens, SW780
- Description: SANGER: Inhibition of human SW780 cell growth in a cell viability assay.
pIC50: −log10 of the molar value.
Readout: pIC50

1) Cc1ccc(Nc2nccc(N(C)c3ccc4c(C)n(C)nc4c3)n2)cc1S(N)(=O)=O: < 5.10
2) CN(c1ncccc1CNc1nc(Nc2ccc3c(c2)CC(=O)N3)ncc1C(F)(F)F)S(C)(=O)=O: < 5.59
3) Cc1cnc(-c2cnc(NCCNc3ccc(C#N)cn3)nc2-c2ccc(Cl)cc2Cl)[nH]1: < 5.59

###

Measured IC50 by item
- System: HCC1806;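 note: growth inhibition of the cancer cell line, determined with a cell viability assay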
- Measurement description: cells
- Type: functional, cell-based, Homo sapiens
- Assay conditions: Homo sapiens, HCC1806
- Description: SANGER: Inhibition of human HCC1806 cell growth in a cell viability assay.
Readout: IC50

1. O=C1N=C(NCc2cccs2)S/C1=C\c1ccc2ncccc2c1: > 5 µM
2. Nc1ccn([C@@H]2O[C@H](CO)[C@@H](O)[C@@H]2O)c(=O)n1: 0.191 µM
3. COc1ccc(C2=N[C@@H](c3ccc(Cl)cc3)[C@@H](c3ccc(Cl)cc3)N2C(=O)N2CCNC(=O)C2)c(OC(C)C)c1: > 8 µM

###

- Test system: GT3TKB
- Measurement description: cells
- Assay type: functional, cell-based, Homo sapiens
- Assay conditions: Homo sapiens, GT3TKB
- Description: SANGER: Inhibition of human GT3TKB cell growth in a cell viability assay.
Readout: IC50

1. CCOc1nc(NC(=O)Cc2cc(OC)ccc2OC)cc(N)c1C#N: > 10 µM
2. CC(=O)O[C@@H]1[C@@H](OC(C)=O)[C@@H](O)[C@H](Oc2c(-c3ccc(O)cc3)oc3cc(O)cc(O)c3c2=O)O[C@H]1C: > 10 µM
3. COc1ccc(C2=N[C@@H](c3ccc(Cl)cc3)[C@@H](c3ccc(Cl)cc3)N2C(=O)N2CCNC(=O)C2)c(OC(C)C)c1 [NUTLIN-3]: > 8 µM

###

- System: IGROV-1;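 note: reduction of IGROV-1 cell growth, read out with a viability assay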
- Measurement description: cells
- Assay type: functional, cell-based, Homo sapiens
- Assay conditions: Homo sapiens, IGROV-1
- Description: SANGER: Inhibition of human IGROV-1 cell growth in a cell viability assay.
Readout: IC50

1. Cc1cnc(-c2cnc(NCCNc3ccc(C#N)cn3)nc2-c2ccc(Cl)cc2Cl)[nH]1: > 2.56 µM
2. Cn1cc(C2=C(c3ccc(Cl)cc3Cl)C(=O)NC2=O)c2ccccc21: > 10 µM
3. O=c1cc(-c2cccc3c2Sc2ccccc2S3)oc(N2CCOCC2)c1: > 10 µM
4. CC(=O)O[C@@H]1[C@@H](OC(C)=O)[C@@H](O)[C@H](Oc2c(-c3ccc(O)cc3)oc3cc(O)cc(O)c3c2=O)O[C@H]1C: > 10 µM

###

Measured pIC50 by item
- Tested on: NCI-H1299;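 note: growth inhibition of human NCI-H1299 cells, read out by a cell viability assay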
- Measurement description: cells
- Assay type: functional, cell-based, Homo sapiens
- Assay conditions: Homo sapiens, NCI-H1299
- Description: SANGER: Inhibition of human NCI-H1299 cell growth in a cell viability assay.
pIC50: −log10 of the molar value.
Readout: pIC50

1) COc1ccc(C2=N[C@@H](c3ccc(Cl)cc3)[C@@H](c3ccc(Cl)cc3)N2C(=O)N2CCNC(=O)C2)c(OC(C)C)c1: < 5.10
2) CN1CCN(CCOc2cc(OC3CCOCC3)c3c(Nc4c(Cl)ccc5c4OCO5)ncnc3c2)CC1: < 5.70
3) C[C@]1(O)C[C@@H](c2nc(-c3ccc4ccc(-c5ccccc5)nc4c3)c3c(N)nccn32)C1: < 5.59

###

- Test system: A-375
- Measurement description: cells
- Format: functional, cell-based, Homo sapiens
- Assay conditions: Homo sapiens, A-375
- Description: SANGER: Inhibition of human A375 cell growth in a cell viability assay.
pIC50: −log10 of the molar value.
Readout: pIC50

1. CN(C)C/C=C/C(=O)Nc1cc2c(Nc3ccc(F)c(Cl)c3)ncnc2cc1O[C@H]1CCOC1 [AFATINIB]: < 6.30
2. Cn1cc(C2=C(c3ccc(Cl)cc3Cl)C(=O)NC2=O)c2ccccc21 [SB-216763]: < 5.00
3. O=C1N=C(NCc2cccs2)S/C1=C\c1ccc2ncccc2c1: < 5.30

###

- Tested on: BE-13
- Measurement description: cells
- Type: functional, cell-based
- Assay conditions: Homo sapiens
- Description: SANGER: Inhibition of human BE-13 cell growth in a cell viability assay.
pIC50: −log10 of the molar value.
Measured pIC50 by item
Readout: pIC50

1) Cn1cc(C2=C(c3ccc(Cl)cc3Cl)C(=O)NC2=O)c2ccccc21 [SB-216763]: < 5.00
2) C=CCc1cccc(/C=N/NC(=O)CN2CCN(Cc3ccccc3)CC2)c1O [PAC-1]: < 5.59
3) Cc1ccc(Nc2nccc(N(C)c3ccc4c(C)n(C)nc4c3)n2)cc1S(N)(=O)=O [PAZOPANIB]: < 5.10
4) CN(c1ncccc1CNc1nc(Nc2ccc3c(c2)CC(=O)N3)ncc1C(F)(F)F)S(C)(=O)=O [PF-00562271]: < 5.59

###

- System: 639-V
- Measurement description: cells
- Assay type: functional, cell-based, Homo sapiens
- Assay conditions: Homo sapiens, 639-V
- Description: SANGER: Inhibition of human 639-V cell growth in a cell viability assay.
pIC50: −log10 of the molar value.
Readout: pIC50

1. O=c1cc(-c2cccc3c2Sc2ccccc2S3)oc(N2CCOCC2)c1 [KU-55933]: < 5.00
2. CCOc1nc(NC(=O)Cc2cc(OC)ccc2OC)cc(N)c1C#N: < 5.00
3. C[C@]1(O)C[C@@H](c2nc(-c3ccc4ccc(-c5ccccc5)nc4c3)c3c(N)nccn32)C1 [LINSITINIB]: < 5.59
4. Cc1ccc(Nc2nccc(N(C)c3ccc4c(C)n(C)nc4c3)n2)cc1S(N)(=O)=O [PAZOPANIB]: < 5.10
5. COc1ccc(-c2ccc3c(N4CCOC[C@@H]4C)nc(N4CCOC[C@@H]4C)nc3n2)cc1CO [AZD-8055]: < 5.70

###

- System: SK-MEL-2
- Measurement description: cells
- Type: functional, cell-based, Homo sapiens
- Assay conditions: Homo sapiens, SK-MEL-2
- Description: SANGER: Inhibition of human SK-MEL-2 cell growth in a cell viability assay.
Measured IC50 by item
Readout: IC50

1. COc1cc([C@@H]2c3cc4c(cc3[C@@H](O[C@@H]3O[C@@H]5CO[C@@H](C)O[C@H]5[C@H](O)[C@H]3O)[C@H]3COC(=O)[C@H]23)OCO4)cc(OC)c1O [ETOPOSIDE]: > 16 µM
2. Cc1cnc(-c2cnc(NCCNc3ccc(C#N)cn3)nc2-c2ccc(Cl)cc2Cl)[nH]1 [LADUVIGLUSIB]: > 2.56 µM
3. Cc1cc(Nc2cc(N3CCN(C)CC3)nc(Sc3ccc(NC(=O)C4CC4)cc3)n2)n[nH]1 [TOZASERTIB]: > 2 µM

###

- Test system: LU-134-A
- Measurement description: cells
- Type: functional, cell-based
- Assay conditions: Homo sapiens
- Description: SANGER: Inhibition of human LU-134-A cell growth in a cell viability assay.
Measured IC50 by item
Readout: IC50

1) Cn1cc(C2=C(c3ccc(Cl)cc3Cl)C(=O)NC2=O)c2ccccc21: > 10000 nM
2) Cc1cc(Nc2cc(N3CCN(C)CC3)nc(Sc3ccc(NC(=O)C4CC4)cc3)n2)n[nH]1: > 2000 nM
3) CN(C)C/C=C/C(=O)Nc1cc2c(Nc3ccc(F)c(Cl)c3)ncnc2cc1O[C@H]1CCOC1: > 500 nM
4) C[C@]1(O)C[C@@H](c2nc(-c3ccc4ccc(-c5ccccc5)nc4c3)c3c(N)nccn32)C1: 2280 nM
5) CO[C@H]1C[C@@H]2CC[C@@H](C)[C@@](O)(O2)C(=O)C(=O)N2CCCC[C@H]2C(=O)O[C@H]([C@H](C)C[C@@H]2CC[C@@H](O)[C@H](OC)C2)CC(=O)[C@H](C)/C=C(\C)[C@@H](O)[C@@H](OC)C(=O)[C@H](C)C[C@H](C)/C=C/C=C/C=C/1C: > 100 nM
6) COc1ccc(C2=N[C@@H](c3ccc(Cl)cc3)[C@@H](c3ccc(Cl)cc3)N2C(=O)N2CCNC(=O)C2)c(OC(C)C)c1: > 8000 nM
7) Cc1ccc(Nc2nccc(N(C)c3ccc4c(C)n(C)nc4c3)n2)cc1S(N)(=O)=O: > 8000 nM
8) CC(=O)O[C@@]12CO[C@@H]1C[C@H](O)[C@@]1(C)C(=O)[C@H](O)C3=C(C)[C@@H](OC(=O)[C@H](O)[C@@H](NC(=O)OC(C)(C)C)c4ccccc4)C[C@@](O)([C@@H](OC(=O)c4ccccc4)[C@H]21)C3(C)C: > 10 nM

###

- Test system: HT
- Measurement description: cells
- Assay type: functional, cell-based
- Assay conditions: Homo sapiens
- Description: SANGER: Inhibition of human HT cell growth in a cell viability assay.
pIC50: −log10 of the molar value.
Measured pIC50 by item
Readout: pIC50

1. C=CCNC1=C2C[C@@H](C)C[C@H](OC)[C@H](O)[C@@H](C)/C=C(\C)[C@H](OC(N)=O)[C@@H](OC)/C=C\C=C(/C)C(=O)NC(=CC1=O)C2=O: < 6.00
2. CN(c1ncccc1CNc1nc(Nc2ccc3c(c2)CC(=O)N3)ncc1C(F)(F)F)S(C)(=O)=O: < 5.59
3. COc1cc(F)c(F)c(Nc2ccc(I)cc2F)c1NS(=O)(=O)C1(CC(O)CO)CC1 (stereo not given): < 5.30
4. CN(C)C/C=C/C(=O)Nc1cc2c(Nc3ccc(F)c(Cl)c3)ncnc2cc1O[C@H]1CCOC1: < 6.30
5. Cn1cncc1[C@@](N)(c1ccc(Cl)cc1)c1ccc2c(c1)c(-c1cccc(Cl)c1)cc(=O)n2C: 5.08
